# assayedTarget: CDK4/Cyclin D1 (Homo sapiens, UniProt P11802)
# Sequence (P11802 whole entry): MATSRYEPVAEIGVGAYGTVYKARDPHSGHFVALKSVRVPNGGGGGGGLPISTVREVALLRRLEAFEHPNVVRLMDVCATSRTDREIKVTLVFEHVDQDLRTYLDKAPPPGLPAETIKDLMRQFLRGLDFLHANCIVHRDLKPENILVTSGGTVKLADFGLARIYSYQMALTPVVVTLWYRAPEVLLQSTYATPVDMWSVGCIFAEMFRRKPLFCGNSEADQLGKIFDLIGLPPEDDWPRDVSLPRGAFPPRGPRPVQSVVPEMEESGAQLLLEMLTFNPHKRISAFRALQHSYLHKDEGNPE
# Sequence (P24385 whole entry partner): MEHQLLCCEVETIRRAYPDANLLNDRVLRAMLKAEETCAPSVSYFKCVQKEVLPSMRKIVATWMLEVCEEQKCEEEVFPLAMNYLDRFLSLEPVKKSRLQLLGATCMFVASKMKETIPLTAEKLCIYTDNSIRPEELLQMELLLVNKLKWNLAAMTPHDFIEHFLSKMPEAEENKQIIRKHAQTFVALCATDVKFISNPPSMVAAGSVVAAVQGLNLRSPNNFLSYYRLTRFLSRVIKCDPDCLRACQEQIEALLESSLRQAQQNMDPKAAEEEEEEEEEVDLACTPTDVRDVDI
# testName: CDK4/CyclinD1 Enzymatic Activity Assay (TR-FRET)
# details: ATP 2 mM final, read-out: CDK4_D1 IC50
measurementName: IC50

1. C[C@@H]1CN(S(=O)(=O)c2cnc3cccnn23)CC[C@@H]1Nc1ncc(C(F)(F)F)c(-c2cc(C(N)=O)cs2)n1 [Example 22] | 100 to 500 nM
2. COCc1cc(-c2nc(NC3CCN(S(=O)(=O)c4cnn(C)c4)CC3)ncc2C(F)(F)F)sc1C [Example 82] | 100 to 500 nM
3. Cc1cnc(-c2nc(N[C@H]3CCN(S(=O)(=O)c4cnn(C)c4)C[C@H]3F)ncc2C(F)(F)F)s1 [Example 26] | ≤ 100 nM
4. C[C@@H]1CN(S(=O)(=O)c2cnn(CC#N)c2)CC[C@@H]1Nc1ncc(C(F)(F)F)c(-c2cc(C(N)=O)cs2)n1 [Example 87] | ≤ 100 nM
5. Cc1sc(-c2nc(N[C@H]3CCN(S(=O)(=O)c4c[nH]cn4)C[C@H]3C)ncc2C(F)(F)F)cc1C#N [Example 86] | > 500 nM

Respond only with IC50 recorded for Cn1cnc(S(=O)(=O)N2CCC(Nc3ncc(C(F)(F)F)c(-c4nc(C(N)=O)cs4)n3)CC2)c1 [Example 92] > 500 nM

Respond only with IC50 recorded for CC(O)c1cnc(-c2nc(NC3CCN(S(=O)(=O)c4cnn(C)c4)CC3)ncc2C(F)(F)F)s1 (stereo not shown) [Example 89] ≤ 100 nM

Ref: patent US20240150340A1
